Consider the following molecules and their measured pIC50 readings.
Biological target: human MC4 receptor (Homo sapiens, UniProt P32245)
Sequence (P32245 whole entry): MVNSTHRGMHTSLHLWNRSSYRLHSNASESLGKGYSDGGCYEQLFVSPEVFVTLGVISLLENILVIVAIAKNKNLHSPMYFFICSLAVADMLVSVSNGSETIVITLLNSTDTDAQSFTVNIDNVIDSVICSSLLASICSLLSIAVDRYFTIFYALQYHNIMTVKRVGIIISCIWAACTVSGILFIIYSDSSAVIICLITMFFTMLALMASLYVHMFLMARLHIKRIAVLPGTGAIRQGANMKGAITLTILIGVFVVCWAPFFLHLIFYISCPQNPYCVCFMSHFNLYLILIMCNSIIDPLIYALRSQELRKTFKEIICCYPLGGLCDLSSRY
pIC50: −log10 of the molar value. Numbered stars: 1 amine (or outer) side, 2 acyl side, 3 side chain; on linkers, the order of the positions; unused ones are H or OH. Bridge positions count the residues as written; N and C are the ends. Square brackets hold non-standard residues; d marks the D form. Peptide text beside a SMILES is read from it. dPhe(4-Cl) = N[C@H](Cc1ccc(Cl)cc1)C(=O)O; dPhe(4-F) = N[C@H](Cc1ccc(F)cc1)C(=O)O; d2Nal = N[C@H](Cc1ccc2ccccc2c1)C(=O)O; dBta = N[C@H](Cc1csc2ccccc12)C(=O)O; Suc = O=C(CCC(=O)[*:2])[*:1]

>  <MOLECULE>
NCCCC[C@@H]1NC(=O)[C@@H](Cc2ccc3ccccc3c2)NC(=O)CCC(=O)NCCCC[C@@H](C(N)=O)NC(=O)[C@H](Cc2c[nH]c3ccccc23)NC1=O [Example 20] ([d2Nal]KWK-NH2; linker N-4 via Suc)

>  <pIC50>
7.36

$$$$
>  <MOLECULE>
N=C(N)NCCC[C@@H]1NC(=O)[C@@H](Cc2ccc(Cl)cc2)NC(=O)CCC(=O)NCCCC[C@@H](C(N)=O)NC(=O)[C@H](Cc2c[nH]c3ccccc23)NC1=O [Example 17] ([dPhe(4-Cl)]RWK-NH2; linker N-4 via Suc)

>  <pIC50>
8.46

$$$$
>  <MOLECULE>
N=C(N)NCCC[C@@H]1NC(=O)[C@@H](Cc2ccc3ccccc3c2)NC(=O)[C@H](Cc2c[nH]cn2)NC(=O)CCC(=O)NCCCC[C@@H](C(N)=O)NC(=O)[C@H](Cc2c[nH]c3ccccc23)NC1=O [Example 7] (H[d2Nal]RWK-NH2; linker N-5 via Suc)

>  <pIC50>
9.00

$$$$
>  <MOLECULE>
N=C(N)NCCC[C@@H]1NC(=O)[C@@H](Cc2ccc3ccccc3c2)NC(=O)[C@H](CCCCN)NC(=O)CCC(=O)NCCCC[C@@H](C(N)=O)NC(=O)[C@H](Cc2c[nH]c3ccccc23)NC1=O [Example 24] (K[d2Nal]RWK-NH2; linker N-5 via Suc)

>  <pIC50>
7.40

$$$$
>  <MOLECULE>
N=C(N)NCCC[C@@H]1NC(=O)[C@@H](Cc2csc3ccccc23)NC(=O)CCC(=O)NCCCC[C@@H](C(N)=O)NC(=O)[C@H](Cc2c[nH]c3ccccc23)NC1=O [Example 16] ([dBta]RWK-NH2; linker N-4 via Suc)

>  <pIC50>
7.16

$$$$
>  <MOLECULE>
N=C(N)NCCC[C@@H]1NC(=O)[C@@H](Cc2ccc(F)cc2)NC(=O)CCC(=O)NCCCC[C@@H](C(N)=O)NC(=O)[C@H](Cc2c[nH]c3ccccc23)NC1=O [Example 19] ([dPhe(4-F)]RWK-NH2; linker N-4 via Suc)

>  <pIC50>
7.15

$$$$

###

Target: human MC5 receptor (Homo sapiens, UniProt P33032)
Sequence (P33032 whole entry): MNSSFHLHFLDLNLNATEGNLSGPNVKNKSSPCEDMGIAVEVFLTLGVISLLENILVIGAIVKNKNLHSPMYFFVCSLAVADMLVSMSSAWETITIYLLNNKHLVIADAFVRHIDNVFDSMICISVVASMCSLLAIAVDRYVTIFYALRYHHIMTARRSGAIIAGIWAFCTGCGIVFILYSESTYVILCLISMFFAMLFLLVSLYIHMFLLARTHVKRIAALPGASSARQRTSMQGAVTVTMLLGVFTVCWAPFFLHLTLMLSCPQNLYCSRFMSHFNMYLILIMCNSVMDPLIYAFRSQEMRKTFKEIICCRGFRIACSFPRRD
Numbered stars: 1 amine (or outer) side, 2 acyl side, 3 side chain; on linkers, the order of the positions; unused ones are H or OH. Bridge positions count the residues as written; N and C are the ends. Square brackets hold non-standard residues; d marks the D form. Peptide text beside a SMILES is read from it. dPhe(4-tBu) = CC(C)(C)c1ccc(C[C@@H](N)C(=O)O)cc1; dPhe(4-Cl) = N[C@H](Cc1ccc(Cl)cc1)C(=O)O; dPhe(4-F) = N[C@H](Cc1ccc(F)cc1)C(=O)O; d2Nal = N[C@H](Cc1ccc2ccccc2c1)C(=O)O; dBta = N[C@H](Cc1csc2ccccc12)C(=O)O; Suc = O=C(CCC(=O)[*:2])[*:1]; Dap = NC[C@H](N)C(=O)O
Consider the following molecules and their measured IC50 readings.

>  <MOLECULE>
NCCCC[C@@H]1NC(=O)[C@@H](Cc2ccc3ccccc3c2)NC(=O)CCC(=O)NCCCC[C@@H](C(N)=O)NC(=O)[C@H](Cc2c[nH]c3ccccc23)NC1=O [Example 20] ([d2Nal]KWK-NH2; linker N-4 via Suc)

>  <IC50>
2.1 µM

$$$$
>  <MOLECULE>
N=C(N)NCCC[C@@H]1NC(=O)[C@@H](Cc2ccc(Cl)cc2)NC(=O)CCC(=O)NCCCC[C@@H](C(N)=O)NC(=O)[C@H](Cc2c[nH]c3ccccc23)NC1=O [Example 17] ([dPhe(4-Cl)]RWK-NH2; linker N-4 via Suc)

>  <IC50>
0.44 µM

$$$$
>  <MOLECULE>
N=C(N)NCCC[C@@H]1NC(=O)[C@@H](Cc2ccc(F)cc2)NC(=O)CCC(=O)NCCCC[C@@H](C(N)=O)NC(=O)[C@H](Cc2c[nH]c3ccccc23)NC1=O [Example 19] ([dPhe(4-F)]RWK-NH2; linker N-4 via Suc)

>  <IC50>
10 µM

$$$$
>  <MOLECULE>
CC(C)(C)c1ccc(C[C@H]2NC(=O)CCC(=O)NCCCC[C@@H](C(N)=O)NC(=O)[C@H](Cc3c[nH]c4ccccc34)NC(=O)[C@H](CCCNC(=N)N)NC2=O)cc1 [Example 14] ([dPhe(4-tBu)]RWK-NH2; linker N-4 via Suc)

>  <IC50>
2.5 µM

$$$$
>  <MOLECULE>
N=C(N)NCCC[C@@H]1NC(=O)[C@@H](Cc2ccc3ccccc3c2)NC(=O)[C@H](CCCCN)NC(=O)CCC(=O)NCCCC[C@@H](C(N)=O)NC(=O)[C@H](Cc2c[nH]c3ccccc23)NC1=O [Example 24] (K[d2Nal]RWK-NH2; linker N-5 via Suc)

>  <IC50>
10 µM

$$$$
>  <MOLECULE>
N=C(N)NCCC[C@@H]1NC(=O)[C@@H](Cc2ccc3ccccc3c2)NC(=O)[C@H](Cc2c[nH]cn2)NC(=O)CCC(=O)NCCCC[C@@H](C(N)=O)NC(=O)[C@H](Cc2c[nH]c3ccccc23)NC1=O [Example 7] (H[d2Nal]RWK-NH2; linker N-5 via Suc)

>  <IC50>
0.2 µM

$$$$
>  <MOLECULE>
CC(=O)N[C@H]1CC(=O)NCCCC[C@@H](C(N)=O)NC(=O)[C@H](Cc2c[nH]c3ccccc23)NC(=O)[C@H](CCCNC(=N)N)NC(=O)[C@@H](Cc2ccc3ccccc3c2)NC1=O [Example 6] (Ac-D[d2Nal]RWK-NH2; lactam 1-5)

>  <IC50>
1.1 µM

$$$$
>  <MOLECULE>
N=C(N)NCCC[C@@H]1NC(=O)[C@@H](Cc2ccc3ccccc3c2)NC(=O)[C@H](Cc2c[nH]cn2)NC(=O)[C@@H](N)CC(=O)NCCCC[C@@H](C(N)=O)NC(=O)[C@H](Cc2c[nH]c3ccccc23)NC1=O

>  <IC50>
0.024 µM

$$$$
>  <MOLECULE>
N=C(N)NCCC[C@@H]1NC(=O)[C@@H](Cc2ccc3ccccc3c2)NC(=O)[C@H](Cc2c[nH]cn2)NC(=O)CCC(=O)NC[C@@H](C(N)=O)NC(=O)[C@H](Cc2c[nH]c3ccccc23)NC1=O [Example 8] (H[d2Nal]RW[Dap]-NH2; linker N-5 via Suc)

>  <IC50>
0.071 µM

$$$$
>  <MOLECULE>
N=C(N)NCCC[C@@H]1NC(=O)[C@@H](Cc2csc3ccccc23)NC(=O)CCC(=O)NCCCC[C@@H](C(N)=O)NC(=O)[C@H](Cc2c[nH]c3ccccc23)NC1=O [Example 16] ([dBta]RWK-NH2; linker N-4 via Suc)

>  <IC50>
3 µM

$$$$

###

Molecular target: human MC4 receptor (Homo sapiens, UniProt P32245)
Construct: expressed in transfected cells; host or cells: Chinese hamster ovary (CHO) cells
Assay: Competitive binding assay, human MC4 receptor
Conditions: selectivity ratio of hMC-3R to hMC-4R binding values
Numbered stars: 1 amine (or outer) side, 2 acyl side, 3 side chain; on linkers, the order of the positions; unused ones are H or OH. Bridge positions count the residues as written; N and C are the ends. Square brackets hold non-standard residues; d marks the D form. Peptide text beside a SMILES is read from it. dPhe(4-tBu) = CC(C)(C)c1ccc(C[C@@H](N)C(=O)O)cc1; dPhe(4-Cl) = N[C@H](Cc1ccc(Cl)cc1)C(=O)O; dPhe(4-F) = N[C@H](Cc1ccc(F)cc1)C(=O)O; d2Nal = N[C@H](Cc1ccc2ccccc2c1)C(=O)O; Maleoyl = O=C(/C=C\C(=O)[*:2])[*:1]; dBta = N[C@H](Cc1csc2ccccc12)C(=O)O; Suc = O=C(CCC(=O)[*:2])[*:1]; Dap = NC[C@H](N)C(=O)O
Mark Y only for 3:4 values smaller than 100; exact matches and larger values are N.

>  <COMPOUND>
NCCCC[C@@H]1NC(=O)[C@@H](Cc2ccc3ccccc3c2)NC(=O)CCC(=O)NCCCC[C@@H](C(N)=O)NC(=O)[C@H](Cc2c[nH]c3ccccc23)NC1=O [Example 20] ([d2Nal]KWK-NH2; linker N-4 via Suc)

>  <CLASS_LABEL>
Y

$$$$
>  <COMPOUND>
CC(C)(C)c1ccc(C[C@H]2NC(=O)CCC(=O)NCCCC[C@@H](C(N)=O)NC(=O)[C@H](Cc3c[nH]c4ccccc34)NC(=O)[C@H](CCCNC(=N)N)NC2=O)cc1 [Example 14] ([dPhe(4-tBu)]RWK-NH2; linker N-4 via Suc)

>  <CLASS_LABEL>
Y

$$$$
>  <COMPOUND>
N=C(N)NCCC[C@@H]1NC(=O)[C@@H](Cc2ccc(F)cc2)NC(=O)CCC(=O)NCCCC[C@@H](C(N)=O)NC(=O)[C@H](Cc2c[nH]c3ccccc23)NC1=O [Example 19] ([dPhe(4-F)]RWK-NH2; linker N-4 via Suc)

>  <CLASS_LABEL>
Y

$$$$
>  <COMPOUND>
N=C(N)NCCC[C@@H]1NC(=O)[C@@H](Cc2ccc3ccccc3c2)NC(=O)[C@H](CCCCN)NC(=O)CCC(=O)NCCCC[C@@H](C(N)=O)NC(=O)[C@H](Cc2c[nH]c3ccccc23)NC1=O [Example 24] (K[d2Nal]RWK-NH2; linker N-5 via Suc)

>  <CLASS_LABEL>
Y

$$$$
>  <COMPOUND>
N=C(N)NCCC[C@@H]1NC(=O)[C@@H](Cc2ccc3ccccc3c2)NC(=O)C2CC2C(=O)NCCCC[C@@H](C(N)=O)NC(=O)[C@H](Cc2c[nH]c3ccccc23)NC1=O (single isomer, unassigned) [11 a]

>  <CLASS_LABEL>
N

$$$$
>  <COMPOUND>
N=C(N)NCCC[C@@H]1NC(=O)[C@@H](Cc2ccc3ccccc3c2)NC(=O)[C@H](Cc2c[nH]cn2)NC(=O)[C@@H](N)CC(=O)NCCCC[C@@H](C(N)=O)NC(=O)[C@H](Cc2c[nH]c3ccccc23)NC1=O

>  <CLASS_LABEL>
Y

$$$$
>  <COMPOUND>
N=C(N)NCCC[C@@H]1NC(=O)[C@@H](Cc2ccc(Cl)cc2)NC(=O)CCC(=O)NCCCC[C@@H](C(N)=O)NC(=O)[C@H](Cc2c[nH]c3ccccc23)NC1=O [Example 17] ([dPhe(4-Cl)]RWK-NH2; linker N-4 via Suc)

>  <CLASS_LABEL>
N

$$$$
>  <COMPOUND>
N=C(N)NCCC[C@@H]1NC(=O)[C@@H](Cc2ccc3ccccc3c2)NC(=O)[C@H](Cc2c[nH]cn2)NC(=O)CCC(=O)NC[C@@H](C(N)=O)NC(=O)[C@H](Cc2c[nH]c3ccccc23)NC1=O [Example 8] (H[d2Nal]RW[Dap]-NH2; linker N-5 via Suc)

>  <CLASS_LABEL>
Y

$$$$
>  <COMPOUND>
CC(=O)N[C@H]1CC(=O)NCCCC[C@@H](C(N)=O)NC(=O)[C@H](Cc2c[nH]c3ccccc23)NC(=O)[C@H](CCCNC(=N)N)NC(=O)[C@@H](Cc2ccc3ccccc3c2)NC1=O [Example 6] (Ac-D[d2Nal]RWK-NH2; lactam 1-5)

>  <CLASS_LABEL>
Y

$$$$
>  <COMPOUND>
N=C(N)NCCC[C@@H]1NC(=O)[C@@H](Cc2ccc3ccccc3c2)NC(=O)[C@H](Cc2c[nH]cn2)NC(=O)CCC(=O)NCCCC[C@@H](C(N)=O)NC(=O)[C@H](Cc2c[nH]c3ccccc23)NC1=O [Example 7] (H[d2Nal]RWK-NH2; linker N-5 via Suc)

>  <CLASS_LABEL>
Y

$$$$
>  <COMPOUND>
N=C(N)NCCC[C@@H]1NC(=O)[C@@H](Cc2csc3ccccc23)NC(=O)CCC(=O)NCCCC[C@@H](C(N)=O)NC(=O)[C@H](Cc2c[nH]c3ccccc23)NC1=O [Example 16] ([dBta]RWK-NH2; linker N-4 via Suc)

>  <CLASS_LABEL>
Y

$$$$
>  <COMPOUND>
N=C(N)NCCC[C@@H]1NC(=O)[C@@H](Cc2ccc3ccccc3c2)NC(=O)C2CC2C(=O)NCCCC[C@@H](C(N)=O)NC(=O)[C@H](Cc2c[nH]c3ccccc23)NC1=O (single isomer, unassigned) [11 b]

>  <CLASS_LABEL>
N

$$$$
>  <COMPOUND>
N=C(N)NCCC[C@@H]1NC(=O)[C@@H](Cc2ccc3ccccc3c2)NC(=O)/C=C\C(=O)NCCCC[C@@H](C(N)=O)NC(=O)[C@H](Cc2c[nH]c3ccccc23)NC1=O [Example 12] ([d2Nal]RWK-NH2; linker N-4 via Maleoyl)

>  <CLASS_LABEL>
N

$$$$
